measurement target: SARS-CoV-2 S1+S2 (40589-V08B1, Sino Biological) (SARS-CoV-2, UniProt P0DTC2 16-1213)
protocol details: ELISA, hmAb at 10 and 1 ug/ml in duplicate; AUC
Assignment: determine reported Binding AUC for the given binders.

Some entries whose results are on file:
binder	Binding AUC
1250E10 (antibody, V domains shown, Recombinant human IgG1) VH: EVQLVQSGAEVKKPGASVKFSCKASGFRVDGSYMHWVRQAPRGGLEWMGLINPSGSGTAYAQIFQGRVTLTRDTSTSTLYMELGSLGSEDTAMYYCARMDRSGSYDLWGQGTLVIVSS VL: DIVLTQSPGNLSLSPGERATLSCRASESIRSAYIAWYQQKPGQAPRLLMRGASVRAAGIPDRFSGSGSGTDYALTISRLEPEDFAVYYCQHFASSPPRYTFGQGTKLEIK	26
1249A8 (antibody, V domains shown) VH: QVQLVQSGAEVKKPGASMKVSCKASGFTFTDYYMHWVRQAPRQGLEWMGLINPSGSGTAYAQNFQGRVTLARDTSTSTLYMEMGSLTSDDTAVYYCARMDSSGSYDHWGQGTLVTVSS VL: ETTLTQSPGTLSLSPGDRATLSCRASQTIRISYLAWYQQKPGQAPRLLVYGPSIRATGIPDRFSARGSGTDFTLTISRLEPEDFAVYYCQHYGSSPPRYTFGQGTKLEIK	24.8

Field: next binder
Any idea what Binding AUC was measured for 1242F4 (antibody, V domains shown, Recombinant human IgG1) VH: EVQLVQSGAEVKKPGTSVKVSCKASGNTVADYYMHWVRQAPRQGLEWVGLINPSGSGTAYAQNFQGRVTLTRDTSTSTLYMELGSLGSEDTAIYYCARMDSSGTYDVWGQGTLVTVSS VL: EIVLTQSPGTLSLSPGERATLSCRASQSIRSGYLAWYQQKPGQAPRLLIRGASVKATGIPDRFSGSGSGTDFTLTISRLEPEDFVVYYCQHFASSPPRYTFGQGTKLEIK ?
27
